Assay: small-molecule microarray binders of probe aCHRDL2, primary screen, biochemical, biotinylated probe, 635/667 nm fluorescence (AID 1100)
Details: higher = more signal
Please provide measured composite z-score for the entries that follow.
Numbers only.

STRUCTURE NOTATION: COC(=O)[C@@]1(Cc2ccc(F)cc2)[C@H]2c3cc(C(=O)N(C)C)n(Cc4ccc(S(C)(=O)=O)cc4)c3C[C@H]2CN1C(=O)c1ccccc1
RECORDED MEASUREMENT: 0.899
--
STRUCTURE NOTATION: Cc1ccc(S[C@]2(C(=O)NCC(F)(F)F)CC(=O)N(C(C)C)[C@@H]2c2ccc(CO)cc2I)cc1
RECORDED MEASUREMENT: 0.893

Now look at this one.
Entry `COC(=O)[C@@]1(Cc2ccc(OC)cc2)[C@H]2c3cc(C(=O)N4CCCC4)n(Cc4ccc(OC)c(OC)c4)c3C[C@H]2CN1C(=O)c1ccccc1` has what composite z-score?
0.9

---

Target: Neurogenic locus notch homolog protein 2 (Homo sapiens)
Assay: Notch2 binders on small-molecule microarrays, primary screen, biochemical, small-molecule microarray, 635 nm fluorescence, stem cell growth factors (AID 1073)
Conditions: Notch2 binding, higher = more signal
For each of the compounds below, state its composite z-score.
Answers are plain numbers.

# annotated cases, reported composite z-score shown
COMPOUND: O=C1C[C@]2(c3ccc([N+](=O)[O-])cc3)C(=O)N(CCN3CCOCC3)c3cc(CO)ccc3[C@H]2N1C1CCCCC1
RECORDED MEASUREMENT: -0.309
--
COMPOUND: CCCCN1CC=CC23O[C@@H]4C=CCOC(=O)[C@@H]4[C@H]2C(=O)N(CCCCCO)[C@@H]3C1=O (stereo partly specified)
RECORDED MEASUREMENT: -0.661
--
COMPOUND: Cc1ccc(S[C@]2(C(=O)NC(C)C)CC(=O)N(Cc3ccccc3Cl)[C@@H]2c2ccc(CO)cc2I)cc1
RECORDED MEASUREMENT: -1.31

Please give composite z-score for each item listed below.
1. O=C1C2C=CC(C(O)C(c3ccccc3)c3ccccc3)N(n3cnnc3)C2C(=O)N1Cc1ccccc1 (stereo unspecified)
2. CC(C)(C)OC(=O)CC[C@]1(C(=O)NCC(O)CO)COC(c2ccc(OCCCO)cc2)=N1 (stereo partly specified)
3. COc1ccc([Si](C)(C)[C@@H]2[C@@H](CCO)O[C@]3(C(=O)N(Cc4ccc(N5C(=O)COc6ccccc65)cc4)c4ccccc43)[C@H]2C)cc1
4. CN1C(=O)C2C=CC(C(O)c3cccs3)N(Nc3ccccc3)C2C1=O (stereo unspecified)

1: 0.492; 2: 1.13; 3: 1.18; 4: 0.94

# batch size: 4; output composite z-score per entry
1. COCCCN1C(=O)[C@@]2(c3ccc([N+](=O)[O-])cc3)CC(=O)N(C3CCCCC3)[C@@H]2c2ccc(CO)cc21
2. COCCCN1C(=O)[C@@]2(Cc3ccccc31)c1ccccc1C(=O)N(Cc1ccccc1C(F)(F)F)[C@H]2c1ccc(CO)cc1
3. COc1ccc(CCNC(=O)[C@@]2(C)c3ccccc3C(=O)N(Cc3cc(F)cc(C(F)(F)F)c3)[C@H]2c2ccc(CO)cc2)cc1
4. C#CCN(CC=C(C)C)[C@H](CO)c1ccccc1

1: -0.537; 2: -0.16; 3: 0.146; 4: 0.204

Need composite z-score for each of these compounds.
1. O=C1O[C@H](c2ccccc2)[C@H](c2ccccc2)N2[C@H]1[C@@H](C(=O)Nc1nc3ccccc3s1)[C@]1(C(=O)Nc3ccc(C#CCCO)cc31)[C@H]2c1ccc(OCCO)cc1
2. CCOC(=O)[C@H]1C/C=C/C[C@H](C(=O)OCC)C(=O)O[C@H]2[C@@H](OC)O[C@H](CO)[C@@H](OC(=O)Nc3cccc(F)c3)[C@@H]2OC1=O
3. COCCOC(=O)N1C(=O)[C@@]2(c3cc(C#CCCO)ccc31)[C@H](C(=O)Nc1nc3ccccc3s1)[C@H]1C(=O)O[C@H](c3ccccc3)[C@H](c3ccccc3)N1[C@@H]2c1ccc(OCCO)cc1
4. CC(=O)n1cc(C(O)C2C=CC3C(=O)N(C)C(=O)C3N2Nc2ccccc2)c2ccccc21 (stereo unspecified)
5. CC(C)N1C(=O)[C@@]2(Cc3ccccc31)c1ccccc1C(=O)N(C1CCCCC1)[C@H]2c1ccc(CO)cc1
6. CN1C(=O)C2C=CC(C(O)C3CC=CCC3)N(NC(=O)OC(C)(C)C)C2C1=O (stereo unspecified)
7. C[N+](C)(C)CCCCNC(=O)[C@H]1C[C@H]2C(=O)N[C@@H](Cc3ccccc3)C(=O)N2[C@H]1c1ccc(O)cc1

[1.19, 0.196, 1.19, 1.58, 0.184, 1.29, -0.601]
